# Test system: WT HIV-1 (IIIB)
# CONDITIONS: read-out: EC50 IIIB, MT-4 cells, MTT method
pEC50: −log10 of the molar value.
REPORTED PROPERTY: pEC50

COMPOUND STRUCTURE	VAL
O=C1Nc2ccc(Cl)cc2[C@@](C#CC2CC2)(C(F)(F)F)O1	8.60
